// provenance: the supplement of paper PMC7125110

B1: glmS ribozyme (parent)
chain: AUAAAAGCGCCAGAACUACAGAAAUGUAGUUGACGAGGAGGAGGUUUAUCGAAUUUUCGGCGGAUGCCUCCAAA

Variants of: B1
Experiment: self-cleavage kobs at 40 uM GlcN6P; higher = faster cleavage; RNA array
Conditions: with glucosamine-6-phosphate
Fewer inactive variants are shown than the library holds.
value type: self-cleavage kobs at 40 uM GlcN6P

Answer with reported self-cleavage kobs at 40 uM GlcN6P of `AUAAACGCGCCAGAUCUACAGAAAUGUAGUUGACGCGGAGGAAGUGUAUUGAUUUUUCGGUGGAUGCCUCCAAA`
< 1e-05 s⁻¹

Recall and state the measured self-cleavage kobs at 40 uM GlcN6P for `AUAAAAGCGCCAGAACUACAGAAAUGUAGUUGACGAGGAGGAGGUUUAUCGAAUUUUCGGCGGAUUCCUUCAAA` .
6.67e-05 s⁻¹

Return the recorded self-cleavage kobs at 40 uM GlcN6P value; entry: `AUAAAAGCGCCAGAACUACAGAAAUGUAGUUGACGAGAAGGUGGUUUAUCGAAUUUUCGGCGGAUGCCUACAAA`
< 1e-05 s⁻¹

Supply measured self-cleavage kobs at 40 uM GlcN6P of `AUAAAAGCGCCAGAACUACAGAAAUGUAGUUGACGAGGCGGAGGUUUCUCGAAUCUUUGGCGGAUGCCUCCAAA` in your reply.
< 1e-05 s⁻¹

Entry `AUAAAGGCACCAGAACUACAGAAAUGUAGUUGACGAGAAGAAGGUUUAUCGAAUUUACGGCGGAUGCCUCCAAA` needs its self-cleavage kobs at 40 uM GlcN6P filled in; supply it.
< 1e-05 s⁻¹

Identify measured self-cleavage kobs at 40 uM GlcN6P associated with `AUAAAAGGGCCAGAACUACAGAAAUGUAGUUGACGAGGAGGAGGUUUAUCGAAUUUGCGGCGGAUGCCUGCAAA`
0.0017 s⁻¹

Continuing:
Identify the reported self-cleavage kobs at 40 uM GlcN6P for the following entry. `AUAAAAGCGUCAGAACUACAGAAAUGUAGUUGACGAGGAGGAGGUUCAUCGAAUUUUCGGCGGAUGCCUCCAAA`
< 1e-05 s⁻¹

Let me know recorded self-cleavage kobs at 40 uM GlcN6P for `AUAAAAGCGCCAGAAUUACAGAAAUGUAGUUGACGAGGAGGACGUUUAUCGAAUUUUCGGCGGAUGCCUCCAAA` , thanks.
< 1e-05 s⁻¹
